biological target: PIK3CA (human) (UniProt P42336); experiment: Assessment of PIK3CA Kinase Activity by AlphaScreen Assay
Sequence (P42336 whole entry, looked up): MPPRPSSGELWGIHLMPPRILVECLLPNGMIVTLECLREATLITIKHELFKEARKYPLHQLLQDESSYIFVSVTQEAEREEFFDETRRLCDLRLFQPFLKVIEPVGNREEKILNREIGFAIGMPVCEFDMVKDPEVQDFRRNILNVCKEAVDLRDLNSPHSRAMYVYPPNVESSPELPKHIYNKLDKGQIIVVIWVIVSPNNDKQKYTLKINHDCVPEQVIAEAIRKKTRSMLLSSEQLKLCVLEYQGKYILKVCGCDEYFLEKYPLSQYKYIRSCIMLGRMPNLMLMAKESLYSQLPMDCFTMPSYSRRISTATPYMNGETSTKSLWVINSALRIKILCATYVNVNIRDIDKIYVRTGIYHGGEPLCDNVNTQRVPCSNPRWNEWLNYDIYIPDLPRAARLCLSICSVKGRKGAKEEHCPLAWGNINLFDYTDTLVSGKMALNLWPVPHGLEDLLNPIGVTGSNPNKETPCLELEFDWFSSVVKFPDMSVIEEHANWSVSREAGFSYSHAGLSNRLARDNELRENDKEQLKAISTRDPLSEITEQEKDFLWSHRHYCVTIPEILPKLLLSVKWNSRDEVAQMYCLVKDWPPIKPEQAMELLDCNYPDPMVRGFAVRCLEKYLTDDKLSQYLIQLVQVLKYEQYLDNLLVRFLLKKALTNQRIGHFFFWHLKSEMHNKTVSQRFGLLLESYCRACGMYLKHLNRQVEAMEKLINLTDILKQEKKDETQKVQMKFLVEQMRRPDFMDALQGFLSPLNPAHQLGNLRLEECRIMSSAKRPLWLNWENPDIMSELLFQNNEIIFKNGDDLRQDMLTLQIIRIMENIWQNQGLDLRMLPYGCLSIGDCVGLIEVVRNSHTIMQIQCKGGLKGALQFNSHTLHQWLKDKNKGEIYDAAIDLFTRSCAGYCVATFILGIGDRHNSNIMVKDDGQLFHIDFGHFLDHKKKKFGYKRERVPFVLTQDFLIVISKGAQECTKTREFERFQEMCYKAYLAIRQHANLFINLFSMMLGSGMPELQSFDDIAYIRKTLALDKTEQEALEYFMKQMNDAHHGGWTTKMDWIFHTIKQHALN
assayReadout: Ki
Form entry: enter the amount, then its unit.

Could you share which Ki value was measured for CC1CN(c2ccnc3ccc(-c4cnc(Cl)c(NS(C)(=O)=O)c4)cc23)CC(C)O1 (stereo unspecified) ?
8.3 nM

---

target: EGFR (human)
assayReadout: pIC50
pIC50 (log units): -log10 of the concentration in mol/L.

Reported pIC50 for EGFR (human), given COc1cc2ncnc(NCc3ccc(F)c(Cl)c3)c2cc1OCCCCCCC(=O)NO ?
7.14

---

pIC50: −log10 of the molar value.
Observed pIC50 values for EGFR (UniProt P00533) are listed in what follows.

chemicalString: COC1=CC(=O)C(Nc2ncnc3cc(OCC4CCN(C)CC4)c(OC)cc23)=CC1=O
testedTarget: EGFR (UniProt P00533)
Sequence (P00533 whole entry, looked up): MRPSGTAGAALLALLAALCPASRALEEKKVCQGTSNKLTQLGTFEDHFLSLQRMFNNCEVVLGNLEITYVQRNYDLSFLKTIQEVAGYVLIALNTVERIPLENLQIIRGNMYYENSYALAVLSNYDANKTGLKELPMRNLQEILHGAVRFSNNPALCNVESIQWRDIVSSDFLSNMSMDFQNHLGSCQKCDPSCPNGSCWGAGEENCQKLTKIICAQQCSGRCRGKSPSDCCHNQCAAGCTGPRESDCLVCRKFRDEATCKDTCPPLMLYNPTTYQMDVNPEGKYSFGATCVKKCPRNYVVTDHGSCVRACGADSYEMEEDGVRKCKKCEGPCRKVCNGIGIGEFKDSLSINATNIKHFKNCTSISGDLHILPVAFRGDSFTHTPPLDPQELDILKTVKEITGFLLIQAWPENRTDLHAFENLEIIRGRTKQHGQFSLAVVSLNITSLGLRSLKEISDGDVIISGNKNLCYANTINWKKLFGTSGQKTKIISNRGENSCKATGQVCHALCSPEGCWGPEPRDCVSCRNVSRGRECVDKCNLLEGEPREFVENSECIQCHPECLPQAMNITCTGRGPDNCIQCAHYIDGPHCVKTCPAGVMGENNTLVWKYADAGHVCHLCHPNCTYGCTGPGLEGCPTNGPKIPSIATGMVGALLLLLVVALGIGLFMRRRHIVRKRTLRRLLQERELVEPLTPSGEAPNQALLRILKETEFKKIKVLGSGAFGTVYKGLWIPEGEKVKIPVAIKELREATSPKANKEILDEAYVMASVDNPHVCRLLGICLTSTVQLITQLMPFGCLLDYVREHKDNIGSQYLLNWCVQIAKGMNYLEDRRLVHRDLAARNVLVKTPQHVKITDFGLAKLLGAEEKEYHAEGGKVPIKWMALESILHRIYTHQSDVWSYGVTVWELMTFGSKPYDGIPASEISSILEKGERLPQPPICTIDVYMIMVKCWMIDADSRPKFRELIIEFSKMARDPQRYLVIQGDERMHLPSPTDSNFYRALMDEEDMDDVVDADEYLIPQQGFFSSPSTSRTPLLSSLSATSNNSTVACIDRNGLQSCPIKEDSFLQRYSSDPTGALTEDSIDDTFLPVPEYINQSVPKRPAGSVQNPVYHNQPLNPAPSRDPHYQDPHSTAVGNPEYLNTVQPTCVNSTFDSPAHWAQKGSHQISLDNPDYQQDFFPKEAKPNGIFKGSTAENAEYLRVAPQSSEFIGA
pIC50: 3.70 to 5.66

// moving on: another record for pIC50
Could you share what pIC50 was measured for COc1cc2c(NC3=CC(=O)C(OC(CF)CF)=CC3=O)ncnc2cc1OCC1CCN(C)CC1 , tested on EGFR (UniProt P00533)?
3.93 to 5.74
